We begin with a simple list: items and their reported isobaric coefficient of expansion.
Experimental Details: isobaric coefficient of expansion
Run Conditions: 303.15 K; 21000 kPa; Liquid

Line Notation: CCCCCCC
Experimental Value: 0.00104 1/K
//
Line Notation: Cc1ccccc1
Experimental Value: 0.000928 1/K
//
Line Notation: CCCCCC
Experimental Value: 0.0011 1/K

Read the next record carefully.
Problem: Requested read-out: isobaric coefficient of expansion. Entry: C1CCCCC1
Result: 0.00102 1/K

* * *

Experimental Details: isobaric coefficient of expansion
Run Conditions: 303.15 K; 16000 kPa; Liquid
Property Name: isobaric coefficient of expansion

// solved cases for isobaric coefficient of expansion follow
Line Notation: Cc1ccccc1
Experimental Value: 0.000952 1/K

Line Notation: CCCCCC
Experimental Value: 0.00115 1/K

Line Notation: C1CCCCC1
Experimental Value: 0.00105 1/K

Problem: Requested read-out: isobaric coefficient of expansion. Entry: CCCCCCC
Result: 0.00108 1/K

* * *

Experimental Details: isobaric coefficient of expansion
Run Conditions: 303.15 K; 26000 kPa; Liquid
We begin with a simple list: items and their reported isobaric coefficient of expansion.

Molecule: Cc1ccccc1 [toluene]
Experimental Value: 0.000904 1/K
--
Molecule: CCCCCCC [heptane]
Experimental Value: 0.00101 1/K
--
Molecule: CCCCCC [hexane]
Experimental Value: 0.00106 1/K

Read the next record carefully.
Problem: Requested read-out: isobaric coefficient of expansion. Entry: C1CCCCC1 [cyclohexane]
Result: 0.000988 1/K

* * *

Experimental Details: isobaric coefficient of expansion
Run Conditions: 303.15 K; 28000 kPa; Liquid
We begin with a simple list: items and their reported isobaric coefficient of expansion.

// solved cases for isobaric coefficient of expansion follow
Compound: C1CCCCC1 [cyclohexane]
isobaric coefficient of expansion: 0.000977 1/K

Compound: Cc1ccccc1 [toluene]
isobaric coefficient of expansion: 0.000896 1/K

Compound: CCCCCCC [heptane]
isobaric coefficient of expansion: 0.000995 1/K

Problem: Requested read-out: isobaric coefficient of expansion. Entry: CCCCCC [hexane]
Result: 0.00104 1/K

* * *

We begin with a simple list: items and their reported isobaric coefficient of expansion.
Experimental Details: isobaric coefficient of expansion
Run Conditions: 303.15 K; 19000 kPa; Liquid

// solved cases for isobaric coefficient of expansion follow
Compound: C1CCCCC1 [cyclohexane]
isobaric coefficient of expansion: 0.00103 1/K
--
Compound: CCCCCC [hexane]
isobaric coefficient of expansion: 0.00112 1/K
--
Compound: Cc1ccccc1 [toluene]
isobaric coefficient of expansion: 0.000937 1/K

Read the next record carefully.
Problem: Requested read-out: isobaric coefficient of expansion. Entry: CCCCCCC [heptane]
Result: 0.00106 1/K

* * *

Experimental Details: isobaric coefficient of expansion
Run Conditions: 303.15 K; 9000 kPa; Liquid
Property Name: isobaric coefficient of expansion

// solved cases for isobaric coefficient of expansion follow
Line Notation: Cc1ccccc1
Experimental Value: 0.00099 1/K
//
Line Notation: CCCCCCC
Experimental Value: 0.00115 1/K
//
Line Notation: C1CCCCC1
Experimental Value: 0.0011 1/K

Read the next record carefully.
Problem: Requested read-out: isobaric coefficient of expansion. Entry: CCCCCC
Result: 0.00122 1/K

* * *

Experimental Details: isobaric coefficient of expansion
Run Conditions: 303.15 K; 11000 kPa; Liquid
We begin with a simple list: items and their reported isobaric coefficient of expansion.

// solved cases for isobaric coefficient of expansion follow
Line Notation: Cc1ccccc1
isobaric coefficient of expansion: 0.000977 1/K
//
Line Notation: CCCCCC
isobaric coefficient of expansion: 0.0012 1/K
//
Line Notation: CCCCCCC
isobaric coefficient of expansion: 0.00113 1/K

Read the next record carefully.
Problem: Requested read-out: isobaric coefficient of expansion. Entry: C1CCCCC1
Result: 0.00109 1/K

* * *

Experimental Details: isobaric coefficient of expansion
Run Conditions: 303.15 K; 20000 kPa; Liquid
We begin with a simple list: items and their reported isobaric coefficient of expansion.

Problem: Requested read-out: isobaric coefficient of expansion. Entry: CCCCCCC
Result: 0.00105 1/K

Problem: Requested read-out: isobaric coefficient of expansion. Entry: C1CCCCC1
Result: 0.00103 1/K

Problem: Requested read-out: isobaric coefficient of expansion. Entry: CCCCCC
Result: 0.00111 1/K

Problem: Requested read-out: isobaric coefficient of expansion. Entry: Cc1ccccc1
Result: 0.000932 1/K

* * *

Experimental Details: isobaric coefficient of expansion
Run Conditions: 303.15 K; 18000 kPa; Liquid
Property Name: isobaric coefficient of expansion

// solved cases for isobaric coefficient of expansion follow
Line Notation: CCCCCC
isobaric coefficient of expansion: 0.00113 1/K
--
Line Notation: CCCCCCC
isobaric coefficient of expansion: 0.00107 1/K
--
Line Notation: Cc1ccccc1
isobaric coefficient of expansion: 0.000942 1/K

Read the next record carefully.
Problem: Requested read-out: isobaric coefficient of expansion. Entry: C1CCCCC1
Result: 0.00104 1/K

* * *

Experimental Details: isobaric coefficient of expansion
Run Conditions: 303.15 K; 500 kPa; Liquid
Property Name: isobaric coefficient of expansion

Line Notation: CCCCCC
Experimental Value: 0.00135 1/K

Line Notation: CCCCCCC
Experimental Value: 0.00125 1/K

Line Notation: Cc1ccccc1
Experimental Value: 0.00104 1/K

Read the next record carefully.
Problem: Requested read-out: isobaric coefficient of expansion. Entry: C1CCCCC1
Result: 0.00118 1/K

* * *

We begin with a simple list: items and their reported isobaric coefficient of expansion.
Experimental Details: isobaric coefficient of expansion
Run Conditions: 303.15 K; 22000 kPa; Liquid

Line Notation: CCCCCC
isobaric coefficient of expansion: 0.00109 1/K

Problem: Requested read-out: isobaric coefficient of expansion. Entry: CCCCCCC
Result: 0.00104 1/K

Problem: Requested read-out: isobaric coefficient of expansion. Entry: Cc1ccccc1
Result: 0.000923 1/K

Problem: Requested read-out: isobaric coefficient of expansion. Entry: C1CCCCC1
Result: 0.00101 1/K

* * *

We begin with a simple list: items and their reported isobaric coefficient of expansion.
Experimental Details: isobaric coefficient of expansion
Run Conditions: 303.15 K; 7000 kPa; Liquid

Problem: Requested read-out: isobaric coefficient of expansion. Entry: CCCCCC
Result: 0.00125 1/K

Problem: Requested read-out: isobaric coefficient of expansion. Entry: Cc1ccccc1
Result: 0.001 1/K

Problem: Requested read-out: isobaric coefficient of expansion. Entry: CCCCCCC
Result: 0.00117 1/K

Problem: Requested read-out: isobaric coefficient of expansion. Entry: C1CCCCC1
Result: 0.00112 1/K

* * *

Experimental Details: isobaric coefficient of expansion
Run Conditions: 303.15 K; 27000 kPa; Liquid
Property Name: isobaric coefficient of expansion

// solved cases for isobaric coefficient of expansion follow
Line Notation: CCCCCCC
isobaric coefficient of expansion: 0.001 1/K
//
Line Notation: C1CCCCC1
isobaric coefficient of expansion: 0.000985 1/K
//
Line Notation: CCCCCC
isobaric coefficient of expansion: 0.00105 1/K

Read the next record carefully.
Problem: Requested read-out: isobaric coefficient of expansion. Entry: Cc1ccccc1
Result: 0.000903 1/K

* * *

We begin with a simple list: items and their reported isobaric coefficient of expansion.
Experimental Details: isobaric coefficient of expansion
Run Conditions: 303.15 K; 23000 kPa; Liquid

// solved cases for isobaric coefficient of expansion follow
Line Notation: C1CCCCC1
isobaric coefficient of expansion: 0.00101 1/K

Line Notation: CCCCCCC
isobaric coefficient of expansion: 0.00103 1/K

Line Notation: CCCCCC
isobaric coefficient of expansion: 0.00108 1/K

Problem: Requested read-out: isobaric coefficient of expansion. Entry: Cc1ccccc1
Result: 0.000918 1/K

* * *

Experimental Details: isobaric coefficient of expansion
Run Conditions: 303.15 K; 10000 kPa; Liquid
We begin with a simple list: items and their reported isobaric coefficient of expansion.

// solved cases for isobaric coefficient of expansion follow
Compound: Cc1ccccc1 [toluene]
Property Name: isobaric coefficient of expansion
Experimental Value: 0.000984 1/K

Compound: CCCCCC [hexane]
Property Name: isobaric coefficient of expansion
Experimental Value: 0.00121 1/K

Problem: Requested read-out: isobaric coefficient of expansion. Entry: CCCCCCC [heptane]
Result: 0.00114 1/K

Problem: Requested read-out: isobaric coefficient of expansion. Entry: C1CCCCC1 [cyclohexane]
Result: 0.00109 1/K

* * *

Experimental Details: isobaric coefficient of expansion
Run Conditions: 303.15 K; 13000 kPa; Liquid
Property Name: isobaric coefficient of expansion

// solved cases for isobaric coefficient of expansion follow
Compound: CCCCCC [hexane]
isobaric coefficient of expansion: 0.00118 1/K
//
Compound: CCCCCCC [heptane]
isobaric coefficient of expansion: 0.00111 1/K
//
Compound: Cc1ccccc1 [toluene]
isobaric coefficient of expansion: 0.000967 1/K

Read the next record carefully.
Problem: Requested read-out: isobaric coefficient of expansion. Entry: C1CCCCC1 [cyclohexane]
Result: 0.00107 1/K
